System: Setaria faberi (SETFA)
Experimental Details: Post-emergence herbicidal glasshouse test on Setaria faberi
Assay type: in vivo
Setup Conditions: post-emergence; 1000 g/h; evaluated after 13 days
Value Kind: POST Application SETFA herbicidal damage (five point scale)

> print(dat)
                              line.notation               tested.on                result
1  Cn1ncc(-n2ccc(C(F)(F)F)c(-c3cccc(S(C)(=O)=O)c3)c2=O)c(O)c1=O  Setaria faberi (SETFA)   4 (4=60-79% damage)
2  Cn1ncc(-n2ccc(C(F)(F)F)c(-c3ccc(C(F)(F)F)cc3)c2=O)c(O)c1=O  Setaria faberi (SETFA)  5 (5=80-100% damage)
3  CCCOc1nn(C)c(=O)c(O)c1-c1ccc(C(F)(F)F)cc1S(C)(=O)=O  Setaria faberi (SETFA)  5 (5=80-100% damage)
4  Cc1c(-c2cnn(C3CCCC3)c(=O)c2O)ccc(S(C)(=O)=O)c1C1=NOCC1  Setaria faberi (SETFA)   4 (4=60-79% damage)
5  Cn1ncc(-n2ccc(C(F)(F)F)c(-c3cc(F)c(F)c(F)c3)c2=O)c(O)c1=O  Setaria faberi (SETFA)  5 (5=80-100% damage)
6         Cn1ncc(-n2ccc3ccccc3c2=O)c(O)c1=O  Setaria faberi (SETFA)    1 (1=0-19% damage)
7  Cn1nc([N+](=O)[O-])c(-c2ccc(C(F)(F)F)cc2S(C)(=O)=O)c(O)c1=O  Setaria faberi (SETFA)  5 (5=80-100% damage)
8   COc1ccc(-c2cnn(C)c(=O)c2O)c(C(F)(F)F)c1  Setaria faberi (SETFA)    1 (1=0-19% damage)
